List of IC50 values.
Biological target: T1, biotinylated PD1-ECD-AviHis (human, UniProt Q15116 25-170, biotinylated)
T1 construct: also called huPD1; hu PD1; not shown: Avi-His tag
T1 sequence (Q15116 25-170): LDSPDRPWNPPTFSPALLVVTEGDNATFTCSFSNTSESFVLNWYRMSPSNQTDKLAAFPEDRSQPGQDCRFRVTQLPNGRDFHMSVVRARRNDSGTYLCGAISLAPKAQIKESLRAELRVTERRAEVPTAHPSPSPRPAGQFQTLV
Experiment: PD-L2 replacing ELISA on coated PD1-ECD-AviHis; competitor PD-L2 Fc chimera

binder	IC50 / µg/mL
PD1-0073 (antibody, V domains shown) VH: EVKLVESGGGLVKPGGSLKLSCAASGFTFSNYGMSWIRQTPEKGLEWVATISGGGRDTYYPDSVKGRFTISRDNVKNNLYLQMSSLRSEDTAFYYCASYYYGIDYWGQGTSVTVSS VL: DIVMTQPHKFMSTSVGDRVRITCKASQDVTTAVAWYQQKPGQSPKLLIYWASTRHTGVPDRFTGSGSGTEFTLTISSVQAEDLALYYCQQHYSIPWTFGGGTKLEIK	0.065
PD1-0098 (antibody, V domains shown, Mouse hybridoma antibody) VH: DVQLQESGPGLVKPSQSLSLTCTVTGYSITSDYAWNWIRQFPGDKLEWLGYITYSGFTNYNPSLKSRISISRDTSKNQFFLQLNSVATEDTATYYCARWHGSAPWYFDYWGRGTTLTVSS VL: DVLMTQTPLSLPVSLGDQASISCRSSQNIVHSDGNTYLEWYLQKPGQSPNLLIYKVSRRFSGVPDRFSGSGSGTDFTLKISRVEAEDLGVYYCFQGSHFPLTFGAGTKLELK	0.045
